Listing of entries alongside the reported growth at 10 µM.
# Test system: SK-MEL-5
# method.description: Growth inhibition of human SK-MEL-5 cells assessed as cell growth at 10 uM incubated for 48 hrs by sulforhodamine B assay relative to control
# Type: functional
# stated.conditions: SK-MEL-5, 48 h, read-out: Activity

| smiles.input | growth at 10 µM [%] |
| --- | --- |
| COc1cc2cc(Oc3ccc(NC(=O)Nc4ccc(Cl)c(C(F)(F)F)c4)cc3)c(C)nc2cc1OC | -73.4 |
| COc1cc2cc(Oc3ccc(NC(=O)Nc4cccc(C(F)(F)F)c4)cc3)c(C)nc2cc1OC | -86.1 |
| COc1cc2cc(Oc3ccc(NC(=O)Nc4ccccc4)cc3)c(C)nc2cc1OC | 60.8 |
| COc1cc2cc(Sc3ccc(NC(=O)Nc4ccc(Cl)c(Cl)c4)cc3)c(C)nc2cc1OC | 71 |
| COc1cc2cc(Oc3ccc(NC(=O)Nc4ccc(C)cc4)cc3)c(C)nc2cc1OC | 100 |
| COc1cc2cc(Oc3ccc(NC(=O)Nc4cc(C(F)(F)F)cc(C(F)(F)F)c4)cc3)c(C)nc2cc1OC | -58.5 |
| COc1cc2cc(Oc3ccc(NC(=O)Nc4ccc(C(F)(F)F)cc4)cc3)c(C)nc2cc1OC | 47.4 |
| Cc1nc2cc(O)c(O)cc2cc1Oc1ccc(NC(=O)Nc2ccc(Cl)c(Cl)c2)cc1 | -42.2 |
| COc1cc2cc(Oc3ccc(NC(=O)Nc4ccc(Cl)c(Cl)c4)cc3)c(C)nc2cc1OC | -35 |

* * *

TGI reference
# System: SF-539
# method.description: Growth inhibition of human SF539 cells incubated for 48 hrs by sulforhodamine B assay
# Assay type: functional
# stated.conditions: SF-539, 48 h

| smiles.input | TGI / µM |
| --- | --- |
| Cc1nc2cc(O)c(O)cc2cc1Oc1ccc(NC(=O)Nc2ccc(Cl)c(Cl)c2)cc1 | 22.7 |
| COc1cc2cc(Oc3ccc(NC(=O)Nc4ccc(Cl)c(Cl)c4)cc3)c(C)nc2cc1OC | 22.3 |
| COc1cc2cc(Oc3ccc(NC(=O)Nc4cc(C(F)(F)F)cc(C(F)(F)F)c4)cc3)c(C)nc2cc1OC | 3.21 |
| COc1cc2cc(Oc3ccc(NC(=O)Nc4ccc(Cl)c(C(F)(F)F)c4)cc3)c(C)nc2cc1OC | 8.39 |
| COc1cc2cc(Oc3ccc(NC(=O)Nc4cccc(C(F)(F)F)c4)cc3)c(C)nc2cc1OC | 8.74 |
| CNC(=O)c1cc(Oc2ccc(NC(=O)Nc3ccc(Cl)c(C(F)(F)F)c3)cc2)ccn1 | 2.51 |

* * *

# Tested on: TK-10
# method.description: Growth inhibition of human TK10 cells incubated for 48 hrs by sulforhodamine B assay
# Assay type: functional
# stated.conditions: TK-10, 48 h
TGI values by entry

| molecule | system.name | TGI |
| --- | --- | --- |
| COc1cc2cc(Oc3ccc(NC(=O)Nc4cc(C(F)(F)F)cc(C(F)(F)F)c4)cc3)c(C)nc2cc1OC | TK-10 | 9.18 µM |
| CNC(=O)c1cc(Oc2ccc(NC(=O)Nc3ccc(Cl)c(C(F)(F)F)c3)cc2)ccn1 [SORAFENIB] | TK-10 | 10 µM |
| Cc1nc2cc(O)c(O)cc2cc1Oc1ccc(NC(=O)Nc2ccc(Cl)c(Cl)c2)cc1 | TK-10 | > 32.5 µM |
| COc1cc2cc(Oc3ccc(NC(=O)Nc4ccc(Cl)c(Cl)c4)cc3)c(C)nc2cc1OC | TK-10 | 9.18 µM |
| COc1cc2cc(Oc3ccc(NC(=O)Nc4cccc(C(F)(F)F)c4)cc3)c(C)nc2cc1OC | TK-10 | 9.93 µM |
| COc1cc2cc(Oc3ccc(NC(=O)Nc4ccc(Cl)c(C(F)(F)F)c4)cc3)c(C)nc2cc1OC | TK-10 | 6.19 µM |

* * *

# System: U-251
# method.description: Growth inhibition of human U251 cells incubated for 48 hrs by sulforhodamine B assay
# Type: functional
# stated.conditions: U-251, 48 h
molecules and their reported TGI

| molecule | value.unit | value.qualifier | TGI |
| --- | --- | --- | --- |
| CNC(=O)c1cc(Oc2ccc(NC(=O)Nc3ccc(Cl)c(C(F)(F)F)c3)cc2)ccn1 [SORAFENIB] | µM | = | 3.16 |
| COc1cc2cc(Oc3ccc(NC(=O)Nc4ccc(Cl)c(C(F)(F)F)c4)cc3)c(C)nc2cc1OC | µM | = | 3.78 |
| COc1cc2cc(Oc3ccc(NC(=O)Nc4ccc(Cl)c(Cl)c4)cc3)c(C)nc2cc1OC | µM | = | 7.26 |
| Cc1nc2cc(O)c(O)cc2cc1Oc1ccc(NC(=O)Nc2ccc(Cl)c(Cl)c2)cc1 | µM | > | 32.5 |
| COc1cc2cc(Oc3ccc(NC(=O)Nc4cc(C(F)(F)F)cc(C(F)(F)F)c4)cc3)c(C)nc2cc1OC | µM | = | 2.47 |
| COc1cc2cc(Oc3ccc(NC(=O)Nc4cccc(C(F)(F)F)c4)cc3)c(C)nc2cc1OC | µM | = | 5.61 |

* * *

# Test system: NCI-H322M
# method.description: Growth inhibition of human NCI-H322M cells incubated for 48 hrs by sulforhodamine B assay
# Assay type: functional
We begin with a simple list: items and their reported log10 TGI.
value.type: log10 TGI (log10 of the value in µM)

| molecule | system.name | value.measured |
| --- | --- | --- |
| COc1cc2cc(Oc3ccc(NC(=O)Nc4cccc(C(F)(F)F)c4)cc3)c(C)nc2cc1OC | NCI-H322M | 1.22 |
| CNC(=O)c1cc(Oc2ccc(NC(=O)Nc3ccc(Cl)c(C(F)(F)F)c3)cc2)ccn1 [SORAFENIB] | NCI-H322M | 0.70 |
| COc1cc2cc(Oc3ccc(NC(=O)Nc4ccc(Cl)c(Cl)c4)cc3)c(C)nc2cc1OC | NCI-H322M | 1.78 |
| COc1cc2cc(Oc3ccc(NC(=O)Nc4cc(C(F)(F)F)cc(C(F)(F)F)c4)cc3)c(C)nc2cc1OC | NCI-H322M | 0.41 |
| COc1cc2cc(Oc3ccc(NC(=O)Nc4ccc(Cl)c(C(F)(F)F)c4)cc3)c(C)nc2cc1OC | NCI-H322M | 0.80 |

* * *

Listed here: items and their measured CC50.
# Tested on: NCI-H460
# method.description: Growth inhibition of human NCI-H460 cells incubated for 48 hrs by sulforhodamine B assay
# Format: functional
# stated.conditions: NCI-H460, 48 h, read-out: LC50 (the source's name)

| smiles.input | system.name | value.unit | value.qualifier | CC50 |
| --- | --- | --- | --- | --- |
| COc1cc2cc(Oc3ccc(NC(=O)Nc4cccc(C(F)(F)F)c4)cc3)c(C)nc2cc1OC | NCI-H460 | µM | = | 34.9 |
| Cc1nc2cc(O)c(O)cc2cc1Oc1ccc(NC(=O)Nc2ccc(Cl)c(Cl)c2)cc1 | NCI-H460 | µM | > | 32.5 |
| COc1cc2cc(Oc3ccc(NC(=O)Nc4ccc(Cl)c(Cl)c4)cc3)c(C)nc2cc1OC | NCI-H460 | µM | = | 45.8 |
| COc1cc2cc(Oc3ccc(NC(=O)Nc4cc(C(F)(F)F)cc(C(F)(F)F)c4)cc3)c(C)nc2cc1OC | NCI-H460 | µM | = | 7.53 |
| COc1cc2cc(Oc3ccc(NC(=O)Nc4ccc(Cl)c(C(F)(F)F)c4)cc3)c(C)nc2cc1OC | NCI-H460 | µM | = | 21.1 |

* * *

# system.name: RAF proto-oncogene serine/threonine-protein kinase (Homo sapiens)
# Sequence (P04049 whole entry): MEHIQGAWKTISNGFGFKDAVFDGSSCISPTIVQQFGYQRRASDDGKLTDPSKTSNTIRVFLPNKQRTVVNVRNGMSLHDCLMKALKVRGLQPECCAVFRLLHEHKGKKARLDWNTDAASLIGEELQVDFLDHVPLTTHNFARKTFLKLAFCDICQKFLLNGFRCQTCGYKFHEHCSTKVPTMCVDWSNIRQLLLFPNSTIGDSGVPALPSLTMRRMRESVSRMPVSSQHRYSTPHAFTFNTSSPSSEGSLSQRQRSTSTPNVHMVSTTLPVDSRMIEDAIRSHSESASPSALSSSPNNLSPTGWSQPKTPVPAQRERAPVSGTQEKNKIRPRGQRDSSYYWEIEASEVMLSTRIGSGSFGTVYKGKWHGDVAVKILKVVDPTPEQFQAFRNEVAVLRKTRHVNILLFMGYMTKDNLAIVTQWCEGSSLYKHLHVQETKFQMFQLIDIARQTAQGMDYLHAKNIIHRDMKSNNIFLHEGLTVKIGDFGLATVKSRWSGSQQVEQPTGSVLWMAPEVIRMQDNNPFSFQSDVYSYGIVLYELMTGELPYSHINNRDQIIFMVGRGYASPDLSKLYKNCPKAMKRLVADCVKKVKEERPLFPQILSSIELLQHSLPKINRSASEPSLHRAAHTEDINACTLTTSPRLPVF
# method.description: Inhibition of human c-RAF at 10 uM using MEK1 as substrate in presence of [33P]ATP by Hotspot assay relative to control
value.type: inhibition (%)

| smiles.input | value.measured |
| --- | --- |
| COc1cc2cc(Oc3ccc(NC(=O)Nc4ccc(Cl)c(C(F)(F)F)c4)cc3)c(C)nc2cc1OC | 99.7 |
| COc1cc2cc(Oc3ccc(NC(=O)Nc4cccc(C(F)(F)F)c4)cc3)c(C)nc2cc1OC | 99.2 |
| COc1cc2cc(Oc3ccc(NC(=O)Nc4ccc(Cl)c(Cl)c4)cc3)c(C)nc2cc1OC | 97.8 |
| COc1cc2cc(Oc3ccc(NC(=O)Nc4cc(C(F)(F)F)cc(C(F)(F)F)c4)cc3)c(C)nc2cc1OC | 92.4 |

* * *

Entries annotated with measured GI50
# Test system: Malme-3M
# method.description: Growth inhibition of human MALME-3M cells incubated for 48 hrs by sulforhodamine B assay
# Assay type: functional

| smiles.input | value.unit | GI50 |
| --- | --- | --- |
| CNC(=O)c1cc(Oc2ccc(NC(=O)Nc3ccc(Cl)c(C(F)(F)F)c3)cc2)ccn1 | nM | 2000 |
| COc1cc2cc(Oc3ccc(NC(=O)Nc4ccc(Cl)c(Cl)c4)cc3)c(C)nc2cc1OC | nM | 3020 |
| Cc1nc2cc(O)c(O)cc2cc1Oc1ccc(NC(=O)Nc2ccc(Cl)c(Cl)c2)cc1 | nM | 8600 |
| COc1cc2cc(Oc3ccc(NC(=O)Nc4cccc(C(F)(F)F)c4)cc3)c(C)nc2cc1OC | nM | 1710 |
| COc1cc2cc(Oc3ccc(NC(=O)Nc4ccc(Cl)c(C(F)(F)F)c4)cc3)c(C)nc2cc1OC | nM | 1330 |
| COc1cc2cc(Oc3ccc(NC(=O)Nc4cc(C(F)(F)F)cc(C(F)(F)F)c4)cc3)c(C)nc2cc1OC | nM | 1100 |
